Data provenance: the supplement of paper PMC10883282

- System: SW684
- assayText: relative viability vs DMSO control (72 h) (fraction); higher = more viable cells
- testParameters: 10 µM
parameterMeasured: relative viability
Please respond with just the number, no unit label.

Item: CC(C)Oc1ccc(-c2nn([C@@H](C)c3oc4ccc(F)cc4c(=O)c3-c3cccc(F)c3)c3ncnc(N)c23)cc1F [Umbralisib] | relative viability: 0.882

Recorded relative viability (molecule Cc1ccc(Nc2nccc(N(C)c3ccc4c(C)n(C)nc4c3)n2)cc1S(N)(=O)=O [Pazopanib] ): 0.878

Query COCCNc1cc(NC(=O)N2CCCc3cc(CN4CCN(C)CC4=O)c(C=O)nc32)ncc1C#N [Roblitinib] yields relative viability of 1.02

GET /value?item= O=C(Nc1ccc(OC(F)(F)Cl)cc1)c1cnc(N2CC[C@@H](O)C2)c(-c2cc[nH]n2)c1 [Asciminib] &field=relative viability returns 0.627

Quick note, relative viability for Cc1cccc(-c2nn3c(c2-c2ccnc4ccc(C(N)=O)cc24)CCC3)n1 [Galunisertib] landed at 1.09
